assay: Kinetic solubility (pH 7.4); assay type: physicochemical; conditions: pH 7.4, aqueous buffer, kinetic from dmso stock
quantity-kind: solubility kinetic

>  <compound>
CC(O)CCC1CCN(c2ccc(Nc3ncc4ccc(=O)n([C@@H]5CC6CCC5C6)c4n3)cc2)CC1 (stereo partly shown)

>  <result>
< 1 µM

$$$$
>  <compound>
CC(=O)c1c(C)c2cnc(Nc3ccc(N4CCNCC4)cn3)nc2n(C2CCCC2)c1=O [Palbociclib, reference compound]

>  <result>
19.9 µM

$$$$
>  <compound>
CC(O)COC1CCN(c2ccc(Nc3ncc4ccc(=O)n([C@@H]5CC6CCC5C6)c4n3)cc2)CC1 (stereo partly shown)

>  <result>
< 1 µM

$$$$
>  <compound>
CC(=O)c1c(C)c2cnc(Nc3ccc(N4CCC(CCCO)CC4)cc3)nc2n(C2CCCC2)c1=O

>  <result>
< 1 µM

$$$$

* * *

In this section we review reported half-life values for a set of molecules.
assay: Metabolic stability in microsomes; type: in vitro ADME; details: mouse, 60-90 min test, read-out: Metabolic stability, Mouse microsomes: t1/2

>  <molecule>
CC(O)COC1CCN(c2ccc(Nc3ncc4ccc(=O)n([C@@H]5CC6CCC5C6)c4n3)cc2)CC1 (stereo partly shown)

>  <half-life (min)>
7.5

$$$$
>  <molecule>
CC(=O)c1c(C)c2cnc(Nc3ccc(N4CCC(CCCO)CC4)cc3)nc2n(C2CCCC2)c1=O

>  <half-life (min)>
29.5

$$$$
>  <molecule>
CC(O)CCC1CCN(c2ccc(Nc3ncc4ccc(=O)n([C@@H]5CC6CCC5C6)c4n3)cc2)CC1 (stereo partly shown)

>  <half-life (min)>
25.4

$$$$
>  <molecule>
CC(=O)c1c(C)c2cnc(Nc3ccc(N4CCNCC4)cn3)nc2n(C2CCCC2)c1=O [Palbociclib, reference compound]

>  <half-life (min)>
75.7

$$$$

* * *

target: UniProtKB P27361
Sequence (P27361 whole entry): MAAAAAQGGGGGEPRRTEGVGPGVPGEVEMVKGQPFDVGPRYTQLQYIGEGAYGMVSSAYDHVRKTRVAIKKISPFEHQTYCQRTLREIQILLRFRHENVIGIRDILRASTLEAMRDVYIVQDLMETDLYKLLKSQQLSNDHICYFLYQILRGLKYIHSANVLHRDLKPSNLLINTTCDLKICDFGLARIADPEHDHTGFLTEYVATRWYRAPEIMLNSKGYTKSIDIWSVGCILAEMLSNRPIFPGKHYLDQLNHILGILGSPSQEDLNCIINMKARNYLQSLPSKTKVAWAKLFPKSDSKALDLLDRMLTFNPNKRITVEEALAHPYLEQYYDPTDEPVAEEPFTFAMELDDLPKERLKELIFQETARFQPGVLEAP

>  <molecule>
CN(C)C(=O)c1cc2cnc(Nc3ccc(N4CCNCC4)cn3)nc2n1C1CCCC1 [Ribociclib, reference compound]

>  <unit-string>
µM

>  <modifier-sign>
>

>  <IC50>
50

$$$$
>  <molecule>
CC(=O)c1c(C)c2cnc(Nc3ccc(N4CCC(CCCO)CC4)cc3)nc2n([C@@H]2CC3CCC2C3)c1=O (stereo partly drawn)

>  <unit-string>
µM

>  <modifier-sign>
=

>  <IC50>
0.949

$$$$
>  <molecule>
O=c1ccc2cnc(Nc3ccc(N4CCNCC4)cc3)nc2n1[C@@H]1CC2CCC1C2 (stereo partly drawn)

>  <unit-string>
µM

>  <modifier-sign>
=

>  <IC50>
2.75

$$$$

* * *

In this section we review reported GI50 values for a set of molecules.
system: MDA-MB-231 breast carcinoma cell line; experiment: Proliferation assay: determination of GI50; assay type: cell-based, human; settings: Homo sapiens, MDA-MB-231; Table 4; n = 4; read-out: Growth inhibition GI50, Breast cancer pRB Wild-Type MDA-MB-231

>  <molecule>
CC(=O)c1c(C)c2cnc(Nc3ccc(N4CCNCC4)cn3)nc2n(C2CCCC2)c1=O [Palbociclib, reference compound]

>  <GI50 (µM)>
1.7

$$$$
>  <molecule>
CC(O)COC1CCN(c2ccc(Nc3ncc4ccc(=O)n([C@@H]5CC6CCC5C6)c4n3)cc2)CC1 (stereo partly shown) [PS006]

>  <GI50 (µM)>
1.7

$$$$
>  <molecule>
CC(O)CCC1CCN(c2ccc(Nc3ncc4ccc(=O)n([C@@H]5CC6CCC5C6)c4n3)cc2)CC1 (stereo partly shown) [PS004]

>  <GI50 (µM)>
3.5

$$$$
>  <molecule>
CC(=O)c1c(C)c2cnc(Nc3ccc(N4CCC(CCCO)CC4)cc3)nc2n(C2CCCC2)c1=O [PS009]

>  <GI50 (µM)>
3.3

$$$$

* * *

In this section we review reported pIC50 values for a set of compounds.
molecular target: DYRK2 (Homo sapiens, UniProt Q92630); assay: Kinase profiling; format: biochemical; details: 10 semi-logarithmic dilutions from 50 μM, singlicate; read-out: IC50 DYRK2
pIC50: −log10 of the molar value.

>  <compound>
CC(O)CCC1CCN(c2ccc(Nc3ncc4ccc(=O)n([C@@H]5CC6CCC5C6)c4n3)cc2)CC1 (stereo partly shown)

>  <modifier-sign>
=

>  <pIC50>
4.39

$$$$
>  <compound>
CN(C)C(=O)c1cc2cnc(Nc3ccc(N4CCNCC4)cn3)nc2n1C1CCCC1 [Ribociclib, reference compound]

>  <modifier-sign>
=

>  <pIC50>
7.86

$$$$
>  <compound>
O=c1ccc2cnc(Nc3ccc(N4CCC(CCCO)CC4)cc3)nc2n1C1CC2CCC1C2 (stereo not shown) [PD-0183812, reference compound]

>  <modifier-sign>
<

>  <pIC50>
4.30

$$$$
>  <compound>
CC(=O)c1c(C)c2cnc(Nc3ccc(N4CCC(CCCO)CC4)cc3)nc2n(C2CCCC2)c1=O

>  <modifier-sign>
<

>  <pIC50>
4.30

$$$$

* * *

Target: DYRK2 (Homo sapiens)
Sequence (Q92630 1-601): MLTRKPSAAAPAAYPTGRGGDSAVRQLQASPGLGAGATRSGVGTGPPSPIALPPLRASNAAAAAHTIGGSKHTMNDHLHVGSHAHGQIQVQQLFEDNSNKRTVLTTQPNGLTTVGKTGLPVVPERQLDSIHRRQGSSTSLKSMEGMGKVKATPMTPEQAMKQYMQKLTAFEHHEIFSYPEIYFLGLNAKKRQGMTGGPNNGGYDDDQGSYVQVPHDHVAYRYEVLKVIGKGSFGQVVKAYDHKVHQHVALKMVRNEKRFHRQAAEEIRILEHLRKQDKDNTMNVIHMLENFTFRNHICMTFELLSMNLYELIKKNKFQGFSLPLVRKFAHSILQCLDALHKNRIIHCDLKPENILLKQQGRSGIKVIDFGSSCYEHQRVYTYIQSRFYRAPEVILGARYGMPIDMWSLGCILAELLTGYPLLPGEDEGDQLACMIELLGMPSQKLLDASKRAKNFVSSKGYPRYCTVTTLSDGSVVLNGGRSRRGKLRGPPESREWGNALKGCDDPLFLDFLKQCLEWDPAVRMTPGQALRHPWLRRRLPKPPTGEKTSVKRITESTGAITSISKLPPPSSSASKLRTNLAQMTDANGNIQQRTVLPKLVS
Assay: Kinase profiling
Assay type: biochemical
Settings: 10 semi-logarithmic dilutions from 50 μM, singlicate; read-out: IC50 DYRK2
pIC50: −log10 of the molar value.
In this section we review reported pIC50 values for a set of compounds.

>  <compound>
CC(=O)c1c(C)c2cnc(Nc3ccc(N4CCNCC4)cn3)nc2n(C2CCCC2)c1=O [Palbociclib, reference compound]

>  <modifier-sign>
=

>  <pIC50>
5.16

$$$$
>  <compound>
O=c1ccc2cnc(Nc3ccc(N4CCC(CCCO)CC4)cc3F)nc2n1[C@@H]1CC2CCC1C2 (some centres unmarked)

>  <modifier-sign>
<

>  <pIC50>
4.30

$$$$
>  <compound>
O=c1ccc2cnc(Nc3ccc(N4CCNCC4)cc3)nc2n1[C@@H]1CC2CCC1C2 (some centres unmarked)

>  <modifier-sign>
=

>  <pIC50>
5.64

$$$$
>  <compound>
O=c1ccc2cnc(Nc3ccc(N4CCC(OCC5(CO)COC5)CC4)cc3)nc2n1[C@@H]1CC2CCC1C2 (some centres unmarked)

>  <modifier-sign>
=

>  <pIC50>
4.71

$$$$
>  <compound>
CC(=O)c1c(C)c2cnc(Nc3ccc(N4CCC(CCCO)CC4)cc3)nc2n([C@@H]2CC3CCC2C3)c1=O (some centres unmarked)

>  <modifier-sign>
=

>  <pIC50>
5.03

$$$$

* * *

In this section we review reported pIC50 values for a set of compounds.
molecular target: CDK19/CycC (Homo sapiens); test: Kinase profiling; conditions: 10 semi-logarithmic dilutions from 50 μM, singlicate
Sequence (Q9BWU1 whole entry): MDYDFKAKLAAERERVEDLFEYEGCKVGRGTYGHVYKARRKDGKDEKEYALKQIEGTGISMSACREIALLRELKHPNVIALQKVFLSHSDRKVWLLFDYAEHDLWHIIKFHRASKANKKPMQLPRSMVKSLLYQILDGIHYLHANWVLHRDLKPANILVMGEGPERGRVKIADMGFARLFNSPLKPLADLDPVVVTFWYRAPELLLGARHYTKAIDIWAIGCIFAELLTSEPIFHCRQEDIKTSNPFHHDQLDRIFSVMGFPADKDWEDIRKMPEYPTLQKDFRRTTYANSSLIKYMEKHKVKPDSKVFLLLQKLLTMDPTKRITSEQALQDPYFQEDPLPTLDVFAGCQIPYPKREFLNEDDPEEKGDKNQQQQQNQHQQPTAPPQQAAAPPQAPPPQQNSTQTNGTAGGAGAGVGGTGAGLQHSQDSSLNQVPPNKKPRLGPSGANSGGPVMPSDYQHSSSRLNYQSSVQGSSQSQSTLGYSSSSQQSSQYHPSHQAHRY
Sequence (P24863 whole entry partner): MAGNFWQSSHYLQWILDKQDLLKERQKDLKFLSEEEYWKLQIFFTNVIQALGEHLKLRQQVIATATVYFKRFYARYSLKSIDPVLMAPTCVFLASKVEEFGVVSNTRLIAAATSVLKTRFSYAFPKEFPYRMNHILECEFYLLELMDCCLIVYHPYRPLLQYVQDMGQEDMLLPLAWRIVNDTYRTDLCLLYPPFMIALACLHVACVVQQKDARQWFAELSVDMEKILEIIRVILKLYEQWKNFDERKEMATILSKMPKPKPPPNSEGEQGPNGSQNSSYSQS
pIC50: −log10 of the molar value.
quantity-kind: pIC50

>  <compound>
CCN1CCN(Cc2ccc(Nc3ncc(F)c(-c4cc(F)c5nc(C)n(C(C)C)c5c4)n3)nc2)CC1 [Abemaciclib, reference compound]

>  <modifier-sign>
<

>  <numeric-value>
4.30

$$$$
>  <compound>
CC(=O)c1c(C)c2cnc(Nc3ccc(N4CCC(CCCO)CC4)cc3)nc2n([C@@H]2CC3CCC2C3)c1=O (some centres unmarked)

>  <modifier-sign>
=

>  <numeric-value>
4.59

$$$$
>  <compound>
O=c1ccc2cnc(Nc3ccc(N4CCC(CCCO)CC4)cc3F)nc2n1[C@@H]1CC2CCC1C2 (some centres unmarked)

>  <modifier-sign>
=

>  <numeric-value>
4.60

$$$$
>  <compound>
CC(O)CCC1CCN(c2ccc(Nc3ncc4ccc(=O)n([C@@H]5CC6CCC5C6)c4n3)cc2)CC1 (some centres unmarked)

>  <modifier-sign>
=

>  <numeric-value>
5.02

$$$$
>  <compound>
O=c1ccc2cnc(Nc3ccc(N4CCC(OCC5(CO)COC5)CC4)cc3)nc2n1[C@@H]1CC2CCC1C2 (some centres unmarked)

>  <modifier-sign>
=

>  <numeric-value>
5.56

$$$$
>  <compound>
CN(C)C(=O)c1cc2cnc(Nc3ccc(N4CCNCC4)cn3)nc2n1C1CCCC1 [Ribociclib, reference compound]

>  <modifier-sign>
=

>  <numeric-value>
6.44

$$$$
>  <compound>
O=c1ccc2cnc(Nc3ccc(N4CCC(CCCO)CC4)c(F)c3)nc2n1[C@@H]1CC2CCC1C2 (some centres unmarked)

>  <modifier-sign>
=

>  <numeric-value>
4.72

$$$$
>  <compound>
CC(=O)c1c(C)c2cnc(Nc3ccc(N4CCNCC4)cc3)nc2n([C@@H]2CC3CCC2C3)c1=O (some centres unmarked)

>  <modifier-sign>
=

>  <numeric-value>
5.55

$$$$
>  <compound>
O=c1ccc2cnc(Nc3ccc(N4CCC(CCCO)CC4)cc3)nc2n1C1CC2CCC1C2 (centres unmarked) [PD-0183812, reference compound]

>  <modifier-sign>
=

>  <numeric-value>
4.76

$$$$
>  <compound>
CC(=O)c1c(C)c2cnc(Nc3ccc(N4CCC(CCCO)CC4)cc3)nc2n(C2CCCC2)c1=O

>  <modifier-sign>
=

>  <numeric-value>
4.44

$$$$
>  <compound>
O=c1ccc2cnc(Nc3ccc(N4CCNCC4)cc3)nc2n1[C@@H]1CC2CCC1C2 (some centres unmarked)

>  <modifier-sign>
=

>  <numeric-value>
6.54

$$$$
>  <compound>
CC(O)COC1CCN(c2ccc(Nc3ncc4ccc(=O)n([C@@H]5CC6CCC5C6)c4n3)cc2)CC1 (some centres unmarked)

>  <modifier-sign>
=

>  <numeric-value>
5.38

$$$$
>  <compound>
CC(O)CCN1CCN(c2ccc(Nc3ncc4ccc(=O)n([C@@H]5CC6CCC5C6)c4n3)cc2)CC1 (some centres unmarked)

>  <modifier-sign>
=

>  <numeric-value>
6.63

$$$$
>  <compound>
CC(=O)c1c(C)c2cnc(Nc3ccc(N4CCNCC4)cn3)nc2n(C2CCCC2)c1=O [Palbociclib, reference compound]

>  <modifier-sign>
=

>  <numeric-value>
4.93

$$$$
